PROTOCOL SUMMARY: Pharmacokinetic analysis in rat plasma
Assay type: in vivo, SD rats
CONDITION DETAILS: metabolite MMAE in SD rat plasma after single IV 3 mg/kg acetate salt of PDC_2
Non-standard residues stand in square brackets, D forms with d. Residues, ends and D or L forms follow the SMILES beside them. *: point of attachment. Dolaproine = CO[C@@H]([C@@H]1CCCN1)[C@@H](C)C(=O)O; Dil = CC[C@H](C)[C@H](NC)[C@@H](CC(=O)O)OC; X1 = C[C@@H](N*)[C@@H](O)c1ccccc1; NMeV = CN[C@H](C(=O)O)C(C)C
MEASURED ENDPOINT: Cmax (nM)
Field format: number, assumed nM, no unit text.

Note to self: Cmax recorded for CC[C@H](C)[C@@H]([C@@H](CC(=O)N1CCC[C@H]1[C@H](OC)[C@@H](C)C(=O)N[C@H](C)[C@@H](O)c1ccccc1)OC)N(C)C(=O)[C@@H](NC(=O)[C@@H](NC)C(C)C)C(C)C [MMAE, monomethyl auristatin E] (H-[NMeV]V[Dil][Dolaproine]-X1) was 70
